Data provenance is patent US8450494B2.

EXPERIMENTAL_SYSTEM: glucokinase (GK) enzyme (Homo sapiens)
Sequence (P35557 1-465): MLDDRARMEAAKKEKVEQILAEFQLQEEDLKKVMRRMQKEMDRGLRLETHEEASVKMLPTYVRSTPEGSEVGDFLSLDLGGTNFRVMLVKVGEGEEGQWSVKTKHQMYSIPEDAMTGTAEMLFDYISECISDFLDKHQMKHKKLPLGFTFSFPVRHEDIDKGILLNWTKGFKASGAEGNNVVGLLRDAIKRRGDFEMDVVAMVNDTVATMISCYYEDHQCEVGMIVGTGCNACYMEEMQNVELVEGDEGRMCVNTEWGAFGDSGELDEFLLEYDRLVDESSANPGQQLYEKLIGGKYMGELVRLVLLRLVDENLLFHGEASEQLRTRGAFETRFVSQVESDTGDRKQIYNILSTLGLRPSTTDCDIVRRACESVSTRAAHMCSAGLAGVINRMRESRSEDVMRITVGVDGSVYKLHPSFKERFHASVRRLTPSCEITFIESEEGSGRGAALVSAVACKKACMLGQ
MEASUREMENT_NOTES: In-vitro glucokinase (GK) enzyme activation assay (coupled with glucose-6-phosphate dehydrogenase, absorbance at 340)
Assay type: biochemical
MEASUREMENT_CONTEXT: compound 5 uM; glucose 2.5 mM, ATP 1 mM
QUANTITY_MEASURED: % of GK activity wrt DMSO (%)

Cc1nnc(-c2ccc(Oc3cc(OCC4CCOCC4)cc(C(=O)Nc4nccs4)c3)cc2)o1 [Example 2.6] = 251.8
COCC(C)Oc1cc(Oc2ccc(-c3nnc(C)o3)cc2)cc(C(=O)Nc2nc(CC(=O)O)cs2)c1 (stereo not shown) [Example 2.8] = 336.3

a. COCC(C)Oc1cc(Oc2ccc(-c3nnc(C4CCCC4)o3)cc2)cc(C(=O)Nc2nccs2)c1 (stereo not shown) [Example 2.31]
b. Cc1nnc(-c2ccc(Oc3cc(OCC45CC6CC(CC(C6)C4)C5)cc(C(=O)Nc4nccs4)c3)cc2)o1 [Example 1.9]
Ask: Which one would you say has the larger % of GK activity wrt DMSO value: a , or b ? Output the label that corresponds to your choice.
Reply: a

* * *

EXPERIMENTAL_SYSTEM: glucokinase (GK) enzyme (Homo sapiens)
MEASUREMENT_NOTES: In-vitro glucokinase (GK) enzyme activation assay (coupled with glucose-6-phosphate dehydrogenase, absorbance at 340)
Type: biochemical
MEASUREMENT_CONTEXT: compound 10 uM; glucose 2.5 mM, ATP 1 mM; read-out: % of GK activity wrt DMSO
QUANTITY_MEASURED: activity at 10 µM (%)

// worked examples, activity at 10 µM included
COCC(C)Oc1cc(Oc2ccc(-c3nnc(CC(C)C)o3)cc2)cc(C(=O)Nc2nccs2)c1 (stereo not shown) [Example 2.22] = 418
C=CCOc1cc(Oc2ccc(-c3nnc(C)o3)cc2)cc(C(=O)Nc2nccs2)c1 [Example 2.4] = 311

I. COCC(C)Oc1cc(Oc2ccc(-c3nnc(C)o3)cc2)cc(C(=O)Nc2ncc(Br)s2)c1 (stereo not shown) [Example 2.36]
II. CCOC(=O)c1cnc(NC(=O)c2cc(Oc3ccc(-c4nnc(C)o4)cc3)cc(OC(C)COC)c2)s1 (stereo not shown) [Example 2.16]
Ask: Which one would you say has the larger activity at 10 µM value: I , or II ? Output the label that corresponds to your choice.
Reply: I

1. COCC(C)Oc1cc(Oc2ccc(-c3nnc(C)o3)cc2)cc(C(=O)Nc2ncc(C)s2)c1 (stereo not shown) [Example 2.9]
2. Cc1nnc(-c2ccc(Oc3cc(OCC4CCC5(CC5)C4)cc(C(=O)Nc4nccs4)c3)cc2)o1 (stereo not shown) [Example 1.6]
Ask: Kindly identify the item with the lower activity at 10 µM figure among these two: 1 and 2 Output the label that corresponds to your choice.
Reply: 2
